procedure-summary: Metabolic stability in mouse liver microsome assessed as parent compound remaining measured at 60 mins by LCMS/MS analysis
Format: ADME
applied-conditions: liver microsomes, read-out: Stability
test-readout: remaining at 1 h (%)
Answers are plain numbers, in %.

Example entries begin here.
1. C=CCn1c(=O)c2cnc(Nc3ccc(N4CCN(C)CC4)c(OC)c3)nc2n1-c1cccc(-c2cccnn2)n1    53.1
2. C=CCn1c(=O)c2cnc(Nc3ccc(N4[C@@H]5CC[C@H]4CN(C)C5)cc3)nc2n1-c1cccc(-c2ncccn2)n1    82.3
3. C=CCn1c(=O)c2cnc(Nc3ccc(N4CCN(C)CC4)cc3)nc2n1-c1cccc(-c2ncccn2)n1    63.9

Quick one: remaining at 1 h for C=CCn1c(=O)c2cnc(Nc3ccc(N4CCN(C)CC4)cc3)nc2n1-c1cccc(-n2cc(F)cn2)n1 ? 15.9

---

procedure-summary: Metabolic stability in human liver microsome assessed as parent compound remaining measured at 60 mins by LCMS/MS analysis
Type: ADME
applied-conditions: liver microsomes, read-out: Stability
Answer each item with its documented remaining at 1 h.
Numbers only, in %.

Example entries begin here.
1) C=CCn1c(=O)c2cnc(Nc3ccc(N4C5CCC4CN(C)C5)cc3)nc2n1-c1cccc(-c2cccnn2)n1    28.6
2) C=CCn1c(=O)c2cnc(Nc3ccc(N4CCN(C)CC4)cc3)nc2n1-c1cccc(-c2cccc(F)n2)n1    32.5
3) C=CCn1c(=O)c2cnc(Nc3ccc(N4CCN(C)CC4)cc3)nc2n1-c1cccc(-c2cnccn2)n1    58.5

As a next step, examine the compound that follows.
Quick one: remaining at 1 h for C=CCn1c(=O)c2cnc(Nc3ccc(N4CCN(C)CC4)cc3)nc2n1-c1cccc(C(C)(C)O)n1 ? 32.7

These data points were gathered from ChEMBL document CHEMBL5512688.
